Numbers sourced from patent US20210332115A1.

MEASURED TARGET: T1, Homo sapiens factor Bb protein (human, UniProt P00751 260-764)
T1 construct: Bought from CompTech (A155); also called complement factor Bb; human factor Bb
T1 sequence (P00751 260-764 limits assumed): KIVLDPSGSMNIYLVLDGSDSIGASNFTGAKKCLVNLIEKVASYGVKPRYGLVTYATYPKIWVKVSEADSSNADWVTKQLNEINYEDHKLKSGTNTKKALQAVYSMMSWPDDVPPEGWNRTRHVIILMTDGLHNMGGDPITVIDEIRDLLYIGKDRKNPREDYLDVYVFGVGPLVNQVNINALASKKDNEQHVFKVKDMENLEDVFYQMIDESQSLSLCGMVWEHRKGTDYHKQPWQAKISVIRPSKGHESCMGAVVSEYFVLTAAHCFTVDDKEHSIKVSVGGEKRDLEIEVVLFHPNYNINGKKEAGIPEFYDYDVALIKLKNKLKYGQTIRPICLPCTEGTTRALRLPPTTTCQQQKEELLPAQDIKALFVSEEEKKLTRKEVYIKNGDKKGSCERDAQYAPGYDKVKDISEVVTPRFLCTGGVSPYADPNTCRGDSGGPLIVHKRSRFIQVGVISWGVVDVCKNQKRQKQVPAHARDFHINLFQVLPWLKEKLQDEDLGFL
ASSAY: SPR single cycle kinetics, IgG on Protein A chip, factor Bb analyte
Description: In order to assess the binding of all humanized variants, single cycle kinetic analysis was performed on supernatants from transfected cell cultures. […] Antibodies were diluted in running buffer to a final concentration of 1 μg/ml, based on concentrations assessed by ELISA titer. […] The sensorgrams and fitted data for the single cycle kinetics are shown in FIGS. 1A-1D and the kinetic parameters measured for the interaction of factor Bb with each antibody are shown in Table 7. […]
PARAMETER MEASURED: pKd
The scale used: pKd is minus the common logarithm of the concentration in molar units.

Examples with their reported pKd follow.
VH0/Vκ0 (Chimeric) (antibody, V domains shown, also called chimeric antibody) VH: EVQLVESGGALVKPGGSLKLSCAASGFTFSNYAMSWVRQTPEKRLEWVATISNRGSYTYYPDSVKGRFTISRDNAKNTLYLQMSSLRSEDTALYYCARERPMDYWGQGTSVTVSS VL: DIVMTQSHKFMSTSVGDRVSITCKASQDVGTAVAWYQQKPGQSPKLLIYWASTRHTGVPDRFTGSGSGTDFTLTITNVQSEDLAVYFCHQHSSNPLTFGAGTKLELK = 8.75
VH1/Vκ1 (antibody, V domains shown) VH: EVQLVESGGGLVKPGGSLRLSCAASGFTFSNYAMSWVRQAPGKGLEWVATISNRGSYTYYPDSVKGRFTISRDNAKNSLYLQMSSLRSEDTALYYCARERPMDYWGQGTSVTVSS VL: DIVMTQSPSFLSASVGDRVTITCKASQDVGTAVAWYQQKPGQPPKLLIYWASTRHTGVPDRFTGSGSGTDFTLTISSLQSEDFAVYFCHQHSSNPLTFGQGTKLEIK = 8.30

// Input: VH0/Vκ1 (control) (antibody, V domains shown) VH: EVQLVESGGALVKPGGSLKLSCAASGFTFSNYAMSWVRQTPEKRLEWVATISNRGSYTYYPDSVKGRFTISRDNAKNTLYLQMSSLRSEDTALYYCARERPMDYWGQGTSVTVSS VL: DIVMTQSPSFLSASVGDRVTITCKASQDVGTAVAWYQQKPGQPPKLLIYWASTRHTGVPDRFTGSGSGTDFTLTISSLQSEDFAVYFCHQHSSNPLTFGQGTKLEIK . Output its pKd only.
8.57
